study target: Collagenase 3 (Homo sapiens) (UniProt P45452)
experiment notes: human MMP13 inhibition, fluorescence-interfering compounds – biochemical, possible fluorescent artifacts, delta fluorescence, confirmation (AID 734)
condition notes: MMP13 fTHP FRET cleavage, delta fluorescence 4 h;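 each compound tested at 4 µM nominal in triplicate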
Among all 5,100 compounds or so, fewer than 10 were called active.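 How the source made its calls: active means inhibition above the mean inhibition over all tested compounds plus 3 SD (cut at about 75% in these data); inactive means the rest.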 Not all results are given here.
Classes used: active, inactive

>  <compound>
CCCn1c(=N)c(C(=O)NCC2CCCO2)cc2c(=O)n3cccc(C)c3nc21 (configuration not stated)

>  <class label>
inactive

$$$$
>  <compound>
COc1ccc2oc(-c3ccccc3)c(C(=O)N3CCOCC3)c2c1

>  <class label>
inactive

$$$$
>  <compound>
CCOC(=O)c1cc(-c2cccs2)nc2onc(C)c12

>  <class label>
inactive

$$$$
>  <compound>
COc1cc2c(cc1OC)-c1cc(N3CCCCCC3)nc(=O)n1CC2

>  <class label>
inactive

$$$$
>  <compound>
COc1ccc(-c2ccc(-c3noc(-c4ccccc4)n3)c(OC)n2)cc1

>  <class label>
inactive

$$$$
>  <compound>
COc1ccc(-c2ccc(-c3noc(-c4ccccc4C)n3)c(OC)n2)cc1

>  <class label>
active

$$$$
>  <compound>
COc1ccc(-c2ccc(-c3noc(-c4ccccc4OC)n3)c(OC)n2)cc1

>  <class label>
inactive

$$$$
>  <compound>
COc1ccc(-c2nnc(Nc3nc4c(OC)cccc4s3)o2)cc1

>  <class label>
inactive

$$$$
>  <compound>
COC(=O)c1[nH]c2ccc(Cl)cc2c1NC(=O)CCN1CCN(C2CCCCC2)CC1

>  <class label>
inactive

$$$$
>  <compound>
CCOC(=O)c1cccnc1SCc1cc(=O)n2ccccc2n1

>  <class label>
inactive

$$$$
>  <compound>
CCOC(=O)CSc1nc(-c2ccc3c(c2)OCO3)ccc1C#N

>  <class label>
active

$$$$
>  <compound>
COc1cccc(Cn2c(=S)[nH]c3ccc(N4CCOCC4)cc3c2=O)c1

>  <class label>
inactive

$$$$
>  <compound>
COc1ccccc1Nc1nc(-c2cccs2)cs1

>  <class label>
inactive

$$$$
>  <compound>
COc1cc(OC)cc(-c2nnc(Nc3nc4c(F)cccc4s3)o2)c1

>  <class label>
active

$$$$
>  <compound>
Cc1cccn2c(=O)c3cc(C(=O)N4CCN(C(=O)c5ccco5)CC4)n(C)c3nc12

>  <class label>
inactive

$$$$
>  <compound>
O=C(Nc1nc(-c2cc3ccccc3oc2=O)cs1)c1ccco1

>  <class label>
inactive

$$$$
>  <compound>
Cc1cc(C)c2c(n1)nn1c(N3CCN(c4ccccc4)CC3)cc(C)nc21

>  <class label>
inactive

$$$$
>  <compound>
Cc1ccc2c(c1)-c1cc(C)nn1C(c1ccc3c(c1)OCO3)N2 (configuration not stated)

>  <class label>
inactive

$$$$
>  <compound>
Cc1ccc(-n2c(Cc3cccn3C)nnc2SCC(=O)Nc2ccc3c(c2)OCO3)cc1

>  <class label>
inactive

$$$$
>  <compound>
COc1cc2c(cc1OC)CN(C(=O)NS(=O)(=O)c1ccc(C)cc1)CC2

>  <class label>
inactive

$$$$
>  <compound>
Cc1cc(N2CCOCC2)nc2ccc(NC(=O)CCC(=O)N3CCCC(C)C3)cc12 (configuration not stated)

>  <class label>
inactive

$$$$
>  <compound>
CC1=C(C(=O)N2CCOCC2)C(c2ccccc2F)C2=C(CC(C)(C)CC2=O)N1 (configuration not stated)

>  <class label>
inactive

$$$$

Source: PubChem BioAssay AID734
